Source of measurements: patent US20100240718A1

Biological target: cytosolic phospholipase A2 (Homo sapiens, UniProt P47712)
Construct: cytosolic phospholipase A2 obtained from human thrombocytes
Sequence (P47712 1-749): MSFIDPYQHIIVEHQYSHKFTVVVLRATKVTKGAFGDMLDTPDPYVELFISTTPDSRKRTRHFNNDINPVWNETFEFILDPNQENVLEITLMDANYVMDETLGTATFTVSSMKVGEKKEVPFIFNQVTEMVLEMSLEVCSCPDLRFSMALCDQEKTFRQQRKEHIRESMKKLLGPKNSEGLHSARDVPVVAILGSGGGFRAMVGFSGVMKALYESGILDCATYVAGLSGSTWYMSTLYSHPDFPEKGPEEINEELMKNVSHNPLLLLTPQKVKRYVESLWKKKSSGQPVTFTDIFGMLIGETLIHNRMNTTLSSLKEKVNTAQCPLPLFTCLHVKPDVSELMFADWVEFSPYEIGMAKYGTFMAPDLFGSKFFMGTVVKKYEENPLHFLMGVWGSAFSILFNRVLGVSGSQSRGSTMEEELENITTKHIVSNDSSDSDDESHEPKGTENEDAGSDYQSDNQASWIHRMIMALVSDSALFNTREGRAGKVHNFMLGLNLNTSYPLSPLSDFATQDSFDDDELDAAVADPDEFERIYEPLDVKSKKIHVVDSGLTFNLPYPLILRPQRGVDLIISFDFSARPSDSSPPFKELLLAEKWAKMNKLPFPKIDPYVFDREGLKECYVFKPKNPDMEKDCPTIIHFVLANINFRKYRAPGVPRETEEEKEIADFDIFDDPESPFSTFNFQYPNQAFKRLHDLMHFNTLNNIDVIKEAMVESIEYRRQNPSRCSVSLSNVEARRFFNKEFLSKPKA
Assay: Inhibition of cytosolic phospholipase A2 isolated from human thrombocytes (arachidonic acid release from SAPC, HPLC-UV)
assay.metric: pIC50
pIC50 here is simply -log10 of the concentration when that concentration is written in mol/L.

For reference, reported pIC50 for `O=C(O)CCC(=O)c1cn(CC(=O)COc2ccc(Oc3ccc(C(F)(F)F)cc3)cc2)c2ccc(C(=O)O)cc12` stands at 6.72

For reference, reported pIC50 for `COC(=O)CCC(=O)c1cn(CC(=O)COc2ccc(Oc3ccc(C(F)(F)F)cc3)cc2)c2ccc(C(=O)O)cc12` stands at 7.66

---

assay: Determining water solubility in phosphate buffered saline (pH 7.4), HPLC; assay type: physicochemical; details: phosphate buffered saline (PBS buffer), aqueous buffer, thermodynamic from solid; PBS buffer pH 7.4; range or bound stated jointly for the listed compounds
# key: entry, value: solubility

See these solved cases before continuing.
{"columns": ["compound", "value.reported"],
 "data": [
  ["CCCCCCCCc1ccc(OCC(=O)Cn2cc(C(=O)OC)c3cc(C(=O)O)ccc32)cc1 [formula (11), reference compound]", "< 1 µg/mL"],
  ["COC(=O)CCC(=O)c1cn(CC(=O)COc2ccc(Oc3ccc(C(F)(F)F)cc3)cc2)c2ccc(C(=O)O)cc12 [formula (5)]", "15 to 35 µg/mL"],
  ["CCCCCCCCc1ccc(OCC(=O)Cn2cc(C(C)=O)c3cc(C(=O)O)ccc32)cc1 [formula (10), reference compound]", "< 1 µg/mL"]
]}

Let us examine a further case.
For reference, reported solubility for O=C(O)CCC(=O)c1cn(CC(=O)COc2ccc(Oc3ccc(C(F)(F)F)cc3)cc2)c2ccc(C(=O)O)cc12 [formula (4)] stands at 190 to 410 µg/mL
